- Tested on: GLXMAW (Soybean, Williams)
- testDetails: Postemergence herbicidal evaluation
- Format: in vivo, Glycine max, (L.) Merr. cv Williams
- runParameters: postemergence, rate 0.0620 kg/ha
- Description: In the tests, seedling plants are grown in jiffy flats for about two weeks. […] After spraying, the plants are placed on greenhouse benches and are cared for in accordance with conventional greenhouse procedures. From four to five weeks after treatment, the seedling plants are examined and rated according to the rating system set forth below. Where more than one test is involved for a given compound, the data are averaged. Results of herbicide evaluation are expressed on a rating scale (0-9). […]
Decision: GLXMAW herbicidal rating beneath 8 gives y; GLXMAW herbicidal rating meeting or exceeding 8 gives n.

Use these answered entries as a reference point.
INSERT INTO measurements (compound, assignedclass) VALUES
  ('Cn1c(C(F)(F)F)cc(=O)n(-c2ccc3snc(C4OCC5(CO4)CO5)c3c2)c1=O (stereo not drawn) [Compound 70]', 'n'),
  ('Cn1c(C(F)(F)F)cc(=O)n(-c2ccc3snc(C4OC(C)(C)C(C)(C)O4)c3c2)c1=O [Compound 56]', 'y'),
  ('Cn1c(C(F)(F)F)cc(=O)n(-c2ccc3snc(-c4nc5ccccc5[nH]c4=O)c3c2)c1=O [Compound 90]', 'y'),
  ('COCC1COC(c2nsc3ccc(-n4c(=O)cc(C(F)(F)F)n(C)c4=O)cc23)O1 (stereo not drawn) [Compound 64]', 'n'),
  ('CC1CC(C)(C)OC(c2nsc3ccc(-n4c(=O)cc(C(F)(F)F)n(C)c4=O)cc23)O1 (stereo not drawn) [Compound 55]', 'y'),
  ('Cn1c(C(F)(F)F)cc(=O)n(-c2ccc3snc(-c4nccs4)c3c2)c1=O [Compound 53]', 'n');

hey, is GLXMAW herbicidal rating for C[C@@H]1C[C@H](C)OC(c2nsc3ccc(-n4c(=O)cc(C(F)(F)F)n(C)c4=O)cc23)O1 (stereo partly drawn) [Compound 51] lower than 8 or not?
y

Find out if reported GLXMAW herbicidal rating for CC(C)C1COC(c2nsc3ccc(-n4c(=O)cc(C(F)(F)F)n(C)c4=O)cc23)=N1 (stereo not drawn) [Compound 74] is less than 8
y

Item Cn1c(C(F)(F)F)cc(=O)n(-c2ccc3snc(C4OC(=O)C(C)(C)O4)c3c2)c1=O (stereo not drawn) [Compound 71] : GLXMAW herbicidal rating beneath 8, strictly?
y

Dear reviewer, please state whether C[C@@H]1OC(c2nsc3cc(F)c(-n4c(=O)cc(C(F)(F)F)n(C)c4=O)cc23)O[C@@H]1C (stereo partly drawn) [Compound 63] has GLXMAW herbicidal rating strictly beneath 8.
n

Problem: For the compound CC1=CC(C)(C)OC(c2nsc3ccc(-n4c(=O)cc(C(F)(F)F)n(C)c4=O)cc23)C1 (stereo not drawn) [Compound 65] , is GLXMAW herbicidal rating under 8?
y

Reference source: patent US6706663B2
